Please go through the items and note down their hepatocyte CLint at 1 µM.
Test: Human hepatocyte clearance study
Type: in vitro ADME
Details: human, pooled cryopreserved human hepatocytes (suspension); working cell density 2 × 10^6 viable cells/mL; read-out: Human In vitro Clint (μl/min/10^6 cells)
One number for each entry, in µL/min/1e6 cells.

These solved cases illustrate the format of a correct answer.
| chemical_structure | hepatocyte CLint at 1 µM [µL/min/1e6 cells] |
| --- | --- |
| C=CC(=O)N1C[C@H](C)N(c2nc(=O)n(-c3c(C4CC4)ncnc3C3CC3)c3nc(-c4c(N)cccc4F)c(Cl)cc23)C[C@H]1C | 6.6 |
| C=CC(=O)N1CCN(c2nc(=O)n(-c3c(C4CC4)ncnc3C3CC3)c3nc(-c4c(N)cccc4F)c(F)cc23)[C@@H](C)C1 | 8.2 |

Okay, now this molecule:
Suppose we examine the molecule `C=CC(=O)N1C[C@H](C)N(c2nc(=O)n(-c3c(C4CC4)ncnc3C3CC3)c3nc(-c4c(N)cccc4F)c(F)cc23)C[C@H]1C` ; what hepatocyte CLint at 1 µM value has been reported?
4

====

Assay: Human hepatocyte clearance study
Type: in vitro ADME
Details: human, pooled cryopreserved human hepatocytes (suspension); working cell density 0.5 × 10^6 viable cells/mL; read-out: Human In vitro Clint (μl/min/10^6 cells)
// NB: equality with 8 µL/min/1e6 cells counts as FALSE; only hepatocyte CLint at 1 µM strictly below is TRUE

| compound | label_value |
| --- | --- |
| C=CC(=O)N1C[C@H](C)N(c2nc(=O)n(-c3c(C4CC4)nc(C)nc3C3CC3)c3nc(-c4c(O)cccc4F)c(F)cc23)C[C@H]1C [Compound 52] | TRUE |
| C=CC(=O)N1CCN(c2nc(=O)n(-c3c(C4CC4)nc(OCCN(C)C)nc3C3CC3)c3nc(-c4ccccc4F)c(Cl)cc23)[C@@H](C)C1 [Compound 20] | TRUE |
| C=CC(=O)N1CCN(c2nc(=O)n(-c3c(C(C)C)nc(C)nc3C(C)C)c3nc(-c4ccccc4F)c(Cl)cc23)[C@@H](C)C1 [Compound 9] | FALSE |
| C=CC(=O)N1CCN(c2nc(=O)n(-c3c(C(C)C)nc(OCCN(C)C)nc3C(C)C)c3nc(-c4c(N)cccc4F)c(Cl)cc23)[C@@H](C)C1 [Compound 23] | TRUE |

Let us examine a further case.
Is hepatocyte CLint at 1 µM of C=CC(=O)N1CCN(c2nc(=O)n(-c3c(C4CC4)ncnc3C3CC3)c3nc(-c4ccccc4F)c(Cl)cc23)[C@@H](C)C1 [Compound 1] strictly below 8 µL/min/1e6 cells?
FALSE

====

Test system: Lung cancer cell line NCI-H358 containing KRas G12C mutation
Assay: Assay for cell proliferation (Cell-titer Glo, 5 days)
Format: cell-based, human
Settings: Homo sapiens, NCI-H358, 120 h, NCI-H358, 5 days, Cell-titer Glo; read-out: IC50 (nM), Inhibition of NCI-H358 Cell Proliferation
attribute_measured: IC50 (nM)
Give bare numbers, in nM.

| chemical_structure | system_name | output_unit | reading |
| --- | --- | --- | --- |
| C=CC(=O)N1CCN(c2nc(=O)n(-c3c(C(C)C)nc(OCCN(C)C)nc3C(C)C)c3nc(-c4c(O)cccc4F)c(Cl)cc23)[C@@H](C)C1 | Lung cancer cell line NCI-H358 containing KRas G12C mutation | nM | 7.6 |
| C=CC(=O)N1C[C@H](C)N(c2nc(=O)n(-c3c(C(C)C)nc(N4CCN(C)CC4)nc3C(C)C)c3nc(-c4c(N)cccc4F)c(F)cc23)C[C@H]1C | Lung cancer cell line NCI-H358 containing KRas G12C mutation | nM | 7.3 |
| C=CC(=O)N1CCN(c2nc(=O)n(-c3c(C(C)C)nc(OCC(C)(C)O)nc3C(C)C)c3nc(-c4ccccc4F)c(Cl)cc23)[C@@H](C)C1 | Lung cancer cell line NCI-H358 containing KRas G12C mutation | nM | 8 |
| C=CC(=O)N1CCN(c2nc(=O)n(-c3cc4ncn(C)c4nc3C(C)C)c3nc(-c4ccccc4F)c(Cl)cc23)[C@@H](C)C1 | Lung cancer cell line NCI-H358 containing KRas G12C mutation | nM | 15.1 |
| C=CC(=O)N1CCN(c2nc(=O)n(-c3c(C4CC4)nc(N4CCNCC4)nc3C3CC3)c3nc(-c4c(O)cccc4F)c(Cl)cc23)[C@@H](C)C1 | Lung cancer cell line NCI-H358 containing KRas G12C mutation | nM | 21.2 |
| C=CC(=O)N1CCN(c2nc(=O)n(-c3c(C(C)C)nc(N4CCC4)nc3C(C)C)c3nc(-c4ccccc4F)c(Cl)cc23)[C@@H](C)C1 | Lung cancer cell line NCI-H358 containing KRas G12C mutation | nM | 30.6 |
| C=CC(=O)N1C[C@H](C)N(c2nc(=O)n(-c3c(C4CC4)nc(C)nc3C3CC3)c3nc(-c4ccccc4F)c(F)cc23)C[C@H]1C | Lung cancer cell line NCI-H358 containing KRas G12C mutation | nM | 107 |
| C=CC(=O)N1CCN(c2nc(=O)n(-c3c(C(C)C)nc(N4CCNCC4)nc3C(C)C)c3nc(-c4ccccc4F)c(Cl)cc23)[C@@H](C)C1 | Lung cancer cell line NCI-H358 containing KRas G12C mutation | nM | 8.8 |

Give one value of IC50 per listed compound.
1. C=CC(=O)N1C[C@H](C)N(c2nc(=O)n(-c3c(C4CC4)nc(N4CCNCC4)nc3C3CC3)c3nc(-c4ccccc4F)c(Cl)cc23)C[C@H]1C
2. C=CC(=O)N1CCN(c2nc(=O)n(-c3c(C(C)C)nc(C4CC4)nc3C(C)C)c3nc(-c4c(N)cccc4F)c(F)cc23)[C@@H](C)C1
3. C=CC(=O)N1CCN(c2nc(=O)n(-c3c(C4CC4)nc(OC)nc3C3CC3)c3nc(-c4c(O)cccc4F)c(F)cc23)[C@@H](C)C1

9.7
8.8
15.9

====

Consider the following molecules; for each one, report its CLint scaled at 1 µM.
Assay: Human hepatocyte clearance study
Type: in vitro ADME
Conditions: human, pooled cryopreserved human hepatocytes (suspension); working cell density 2 × 10^6 viable cells/mL; read-out: Human Scale-up Clint
Method: The in vitro human hepatocyte clearance of compounds described here was studied using pooled human hepatocytes purchased from BioreclamationIVT (Westbury, NY, Cat #X008001, Lot #TQJ). The assay was conducted according to manufacturer's instruction. […] Peak areas were determined from extracted ion chromatograms. The in vitro half-life (t1/2) of parent compound was determined by regression analysis of the percent parent disappearance vs. time curve. […]
Give bare numbers, in mL/min/kg.

For orientation, consider the following solved cases.
| molecule | CLint scaled at 1 µM (mL/min/kg) |
| --- | --- |
| C=CC(=O)N1C[C@H](C)N(c2nc(=O)n(-c3c(C4CC4)ncnc3C3CC3)c3nc(-c4c(N)cccc4F)c(F)cc23)C[C@H]1C [Compound 44] | 10.2 |
| C=CC(=O)N1C[C@H](C)N(c2nc(=O)n(-c3c(C4CC4)ncnc3C3CC3)c3nc(-c4ccccc4F)c(Cl)cc23)C[C@H]1C [Compound 128] | 26.1 |
| C=CC(=O)N1C[C@H](C)N(c2nc(=O)n(-c3c(C4CC4)ncnc3C3CC3)c3nc(-c4c(O)cccc4F)c(Cl)cc23)C[C@H]1C [Compound 127] | 11.1 |
| C=CC(=O)N1CCN(c2nc(=O)n(-c3c(C4CC4)ncnc3C3CC3)c3nc(-c4c(N)cccc4F)c(F)cc23)[C@@H](C)C1 [Compound 41] | 20.9 |
| C=CC(=O)N1CCN(c2nc(=O)n(-c3c(C4CC4)ncnc3C3CC3)c3nc(-c4c(N)cccc4F)c(Cl)cc23)[C@@H](C)C1 [Compound 124] | 21.7 |

Now examine the next entry.
Reported CLint scaled at 1 µM for C=CC(=O)N1C[C@H](C)N(c2nc(=O)n(-c3c(F)cc4c(ncn4C)c3C(C)C)c3nc(-c4c(N)cccc4F)c(F)cc23)C[C@H]1C (atropisomer, axis not shown) [Compound 145] : what is it?
2.6

====

Tested on: pooled human hepatocytes
Experiment: Human hepatocyte clearance study
Format: in vitro ADME
Conditions: working cell density 2 × 10^6 viable cells/mL
Kindly apply the following: yes (1) if Human Hepatocyte Remaining Percentage @ 120 min (%) is less than 40%, no (0) in every other case.

Recorded results for 3 compounds are shown here.
| chemical_structure | label_value |
| --- | --- |
| C=CC(=O)N1C[C@H](C)N(c2nc(=O)n(-c3c(C4CC4)ncnc3C3CC3)c3nc(-c4c(N)cccc4F)c(F)cc23)C[C@H]1C | no (0) |
| C=CC(=O)N1CCN(c2nc(=O)n(-c3c(C4CC4)ncnc3C3CC3)c3nc(-c4c(N)cccc4F)c(Cl)cc23)[C@@H](C)C1 | yes (1) |
| C=CC(=O)N1C[C@H](C)N(c2nc(=O)n(-c3c(C4CC4)ncnc3C3CC3)c3nc(-c4c(O)cccc4F)c(Cl)cc23)C[C@H]1C | no (0) |

Determine whether this compound shows Human Hepatocyte Remaining Percentage @ 120 min (%) lower than 40% (ties excluded): `C=CC(=O)N1CCN(c2nc(=O)n(-c3c(C4CC4)ncnc3C3CC3)c3nc(-c4c(O)cccc4F)c(F)cc23)[C@@H](C)C1`
yes (1)

The origin of these recorded values is patent US12110289B2.
